- EXPERIMENTAL TARGET: T1, GRIP1_7, Q9Y3R0
- T1 sequence (Q9Y3R0 999-1096, limits assumed, looked up): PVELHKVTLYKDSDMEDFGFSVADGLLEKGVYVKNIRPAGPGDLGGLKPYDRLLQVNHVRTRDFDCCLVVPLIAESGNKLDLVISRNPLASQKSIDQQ
- ASSAY OVERVIEW: holdup assay
- Parameters: key: below the threshold = too weak to quantify, mostly under pKd 3.1 to 4
- MEASUREMENT CONDITIONS: plain residues with an end cap or a label only (N-terminal biotin on a linker: ado-ado)
OBSERVABLE: pKd

{"BINDER": "QKNKDREYYV [NRXN3, Q9HDB5]", "OBSERVABLE": "pKd", "READOUT VALUE": 4.62}
{"BINDER": "RGKNRRQSIF [CDK18, Q07002]", "OBSERVABLE": "pKd", "READOUT VALUE": "below the threshold"}
{"BINDER": "PDSYHRRDFW [U2AF2, P26368]", "OBSERVABLE": "pKd", "READOUT VALUE": "below the threshold"}
{"BINDER": "KLQNPNQSVV [TYRP1, P17643]", "OBSERVABLE": "pKd", "READOUT VALUE": "below the threshold"}
